Test system: HOP-92 NSCLC
ASSAY_PROCEDURE: NCI tumour cell line growth inhibition, 48 h
PARAMETER: TGI

COMPOUND | TGI
O=C(c1ccco1)N(Cc1ccco1)C(=S)Nc1ccccc1 | 30.3 µM
CCCCCCCC(=O)NCC(O)CNC(=O)CCCCCCC | > 100 µM

Items follow; give TGI for each.
1. N#CC1Cc2cc3c(cc21)OCO3 (centres undefined)
2. n1onc2c1NC1Nc3nonc3NC1N2 (centres undefined)

Completion:
1: > 100 µM; 2: > 100 µM

###

System: SK-MEL-2 melanoma
ASSAY_PROCEDURE: NCI tumour cell line growth inhibition, 48 h
Hi there, I'd appreciate the recorded TGI for every entry that follows.

Record excerpt, results attached:
COMPOUND | TGI
CN(C)c1nc(N(C)C)nc(N(C)CN(C)c2ccc(Cl)cc2)n1 | > 100 µM
N=C(N)c1ccc(OCCOCCOc2ccc(C(=N)N)cc2)cc1 | > 100 µM
CC1(Cl)CC2OC3(Br)C=CC(C)(O)C2(CC1Br)C3(C)C (stereo not drawn) | > 100 µM

Items follow; give TGI for each.
1. C=C1[C@H](OC(=O)C(C)C)[C@]23CC4(O)[C@@H]5[C@@]6(C)CCC[C@]57C([C@@H]2C[C@@]1(O)[C@H](O)[C@@H]73)N4C6
2. CCOc1ccc(-c2cnnn2-c2nonc2-n2cccc2)cc1
3. Nc1ccccc1-c1ccc([N+](=O)[O-])cc1

Completion:
1: > 100 µM; 2: > 100 µM; 3: > 100 µM

Items follow; give TGI for each.
1. OC1(c2ccc(Cl)cc2)c2c(ccc3c2OCO3)C2=NCCN21 (stereo not drawn)
2. O=C(O)C1=CCCc2ccc3ccccc3c21
3. CCN1C=C/C(=C\C=C/c2cc[n+](CC)c3ccccc23)c2ccccc21
4. COC(=O)C1=C(C(=O)OC)C(Cc2ccccc2)(OO)OC1=O (stereo not drawn)
5. N#CC(/C(=N/NC(=O)C(=O)NN)C(=O)Nc1nc([N+](=O)[O-])cs1)c1ccc(Cl)cc1 (stereo not drawn)
6. CCOC(O)(NC(=O)C(C(F)(F)F)C(F)(F)F)C(F)(F)F (stereo not drawn)
7. CCOC(=O)N1C2C=C(C)C(ON2C(=O)c2ccccc2)C2C(C)C(=O)N21 (stereo not drawn)

Completion:
["43.4 µM", "> 100 µM", "21.2 µM", "96.2 µM", "> 100 µM", "> 100 µM", "> 100 µM"]

###

Tested on: RPMI-8226 leukemia
ASSAY_PROCEDURE: NCI tumour cell line growth inhibition, 48 h
Hi there, I'd appreciate the recorded TGI for every entry that follows.
One number for each entry, in µM.

Record excerpt, results attached:
COMPOUND | TESTED_SYSTEM | READING_UNIT | RECORDED_RESULT
Nc1ccc(-c2cssc2=S)cc1 | RPMI-8226 leukemia | µM | 5.65
N#C/C(=N\Nc1ccc(Cl)cc1)C(=O)Nc1cc(-c2ccccc2)nn1-c1ccccc1 | RPMI-8226 leukemia | µM | 6.67
O=C1N(c2ccccc2)C2(c3ccccc3)CC3CCCC13S2 (configuration not stated) | RPMI-8226 leukemia | µM | 98.8

Items follow; give TGI for each.
1. C/C=C/C1=C(Cl)C(=O)[C@@H](Cl)[C@@]1(O)C(=O)OC
2. O=C1C2C(C(=O)[N]1[Hg][c]1cccs1)C1(Cl)C(Cl)=C(Cl)C2(Cl)C1(Cl)Cl (configuration not stated)
3. COC(=O)[C@@H]1C=C[C@H](OC2OC(COC(C)=O)C(OC(C)=O)C(OC(C)=O)C2OC(C)=O)n2c(=O)c3ccccc3c(=O)n21 (some centres not stated)
4. CC(=O)Nc1ccc(N=C2C(c3ccccc3)=C(SC3=C(c4ccccc4)C(=Nc4ccc(NC(C)=O)cc4)c4ccccc43)c3ccccc32)cc1

Completion:
[29, 6.38, 35.6, 81.1]
